Reference for the values: patent US9630947B2

Sequence of the target: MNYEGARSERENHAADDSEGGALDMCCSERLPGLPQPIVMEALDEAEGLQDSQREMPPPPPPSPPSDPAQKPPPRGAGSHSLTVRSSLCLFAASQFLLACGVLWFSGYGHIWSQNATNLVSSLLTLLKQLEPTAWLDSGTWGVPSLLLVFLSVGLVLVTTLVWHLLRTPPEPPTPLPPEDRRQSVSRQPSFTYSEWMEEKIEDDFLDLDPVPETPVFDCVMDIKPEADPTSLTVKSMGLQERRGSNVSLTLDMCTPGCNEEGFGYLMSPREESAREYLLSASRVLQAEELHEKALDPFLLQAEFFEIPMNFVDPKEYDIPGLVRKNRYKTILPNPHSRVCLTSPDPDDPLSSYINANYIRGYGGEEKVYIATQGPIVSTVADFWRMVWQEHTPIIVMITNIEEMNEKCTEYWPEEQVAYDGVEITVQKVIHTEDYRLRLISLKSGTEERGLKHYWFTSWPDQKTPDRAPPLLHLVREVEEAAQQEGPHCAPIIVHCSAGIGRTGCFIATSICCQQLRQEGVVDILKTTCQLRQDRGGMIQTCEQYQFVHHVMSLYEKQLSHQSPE
# reported IC50; entries follow

// COc1ccc2nc(-c3cccnc3)nc(Nc3ncc(-c4ccccc4)s3)c2c1 [Compound 418] : IC50 value = 1 to 10 µM

Per the records, this compound ( CC(=O)Nc1nc(-c2cccnc2)nc2ccc(-c3cccc(F)c3F)cc12 [Compound 1369] ) has IC50 equal to 1 to 10 µM

Just so you know, measured IC50 for COc1ccc2nc(-c3cccnc3)nc(Nc3nnc(-c4ccc(F)cc4)s3)c2c1 [Compound 423] came out at 1 to 10 µM

Documented IC50 of CNc1nc(-c2cccnc2)nc2ccc(-c3cccnc3OC)cc12 [Compound 1330] : > 10 µM

Further cases:
Field IC50 (entry COc1cc(OC)cc(-c2ccc3nc(-c4cccnc4)nc(Nc4ccc(F)c(Cl)c4)c3c2)c1 [Compound 642] ) reads < 1 µM
